Tested on: MT4
TEST_METHOD_NOTES: Tested for its anti-HIV activity in MT-4 cells in the presence of 50% human serum.
Format: functional, cell-based
Exercise: state measured EC50 for each of the molecules provided.
# value in nM; strip the unit string

Kindly note the recorded EC50 for O=C(N[C@@H](Cc1ccccc1)[C@@H](O)C[C@H](Cc1ccccc1)NC(=O)OC1COC2OCCC12)Oc1cncs1 (some centres not stated) , which is 774

Kindly note the recorded EC50 for CC(C)c1nc(CN(C)C(=O)N[C@H](C(=O)N[C@@H](Cc2ccccc2)C[C@H](O)[C@H](Cc2ccccc2)NC(=O)OCc2cncs2)C(C)C)cs1 , which is 810

Kindly note the recorded EC50 for O=C(N[C@@H](Cc1ccccc1)C[C@H](O)[C@H](Cc1ccccc1)NC(=O)O[C@H]1COC2OCCC21)O[C@H]1COC2OCCC21 (some centres not stated) , which is 115

Kindly note the recorded EC50 for O=C(N[C@@H](Cc1ccccc1)[C@@H](O)C[C@H](Cc1ccccc1)NC(=O)O[C@@H]1COC2OCCC21)O[C@H]1COC2OCCC21 (some centres not stated) , which is 1920

Kindly note the recorded EC50 for O=C(N[C@@H](Cc1ccccc1)C[C@H](O)[C@H](Cc1ccccc1)NC(=O)O[C@@H]1COC2OCCC21)O[C@@H]1COC2OCCC21 (some centres not stated) , which is 4180

Kindly note the recorded EC50 for CC(C)(C)OC(=O)N[C@@H](Cc1ccccc1)C[C@H](O)[C@H](Cc1ccccc1)NC(=O)O[C@@H]1COC2OCCC21 (some centres not stated) , which is 4730

Kindly note the recorded EC50 for O=C(N[C@@H](Cc1ccccc1)C[C@H](O)[C@H](Cc1ccccc1)NC(=O)OC1COC2OCCC12)OC1COC2OCCC12 (some centres not stated) , which is 77

###

TEST_METHOD_NOTES: Tmax value after oral dose at a dose of 10 mg/kg in rats.
Type: ADME, organism-based
Parameters: dose 10 mg/kg, route oral
CONDITION_DESCRIPTION: rat, in vivo
RECORDED_METRIC: Tmax (min)
# value in min; strip the unit string

Kindly note the recorded Tmax for O=C(N[C@@H](Cc1ccccc1)C[C@H](O)[C@H](Cc1ccccc1)NC(=O)O[C@H]1COC2OCCC21)Oc1cncs1 (stereo partly specified) , which is 30

###

TEST_METHOD_NOTES: AUC value after oral dose at a dose of 10 mg/kg in rats.
Assay type: ADME, organism-based
Design: dose 10 mg/kg, route oral
CONDITION_DESCRIPTION: rat, plasma
RECORDED_METRIC: AUC
Report as: number unit

Kindly note the recorded AUC for O=C(N[C@@H](Cc1ccccc1)C[C@H](O)[C@H](Cc1ccccc1)NC(=O)O[C@H]1COC2OCCC21)Oc1cncs1 (stereo partly specified) , which is 1890 ng·h/mL

###

Tested on: MT4
TEST_METHOD_NOTES: Tested for its anti-HIV activity in MT-4 cells in the presence of 50% human serum.
Format: functional, cell-based
RECORDED_METRIC: EC50 (nM)
# value in nM; strip the unit string

Kindly note the recorded EC50 for CC(C)(C)OC(=O)N[C@@H](Cc1ccccc1)C[C@H](O)[C@H](Cc1ccccc1)NC(=O)OC1COC2OCCC12 (some centres undefined) , which is 200

Kindly note the recorded EC50 for O=C(N[C@@H](Cc1ccccc1)C[C@H](O)[C@H](Cc1ccccc1)NC(=O)OC1COC2OCCC12)Oc1cncs1 (some centres undefined) , which is 1200

Kindly note the recorded EC50 for O=C(N[C@@H](Cc1ccccc1)C[C@H](O)[C@H](Cc1ccccc1)NC(=O)O[C@@H]1COC2OCCC21)O[C@H]1COC2OCCC21 (some centres undefined) , which is 197

Kindly note the recorded EC50 for O=C(N[C@@H](Cc1ccccc1)C[C@H](O)[C@H](Cc1ccccc1)NC(=O)O[C@H]1COC2OCCC21)Oc1cncs1 (some centres undefined) , which is 290
